- study-system: 70S ribosome extract of E. coli Rosetta DE3 pLysS (E. coli Rosetta DE3 pLysS (endogenous))
- test-method-notes: fluorescence polarisation; 2-fold dilution series of the ribosome extract (23 steps) mixed with cf-labeled peptide (20 µL, 40 nmol/L) in ribosome preparation buffer (20 mmol/L Hepes-KOH, 6 mmol/L MgCl2, 30 mmol/L NH4Cl, pH 7.6); 28 ± 1 °C, 90 min; Kd = x0 of a dose-response fit
Square brackets hold non-standard residues; d marks the D form.
measurement-type: Kd (nM)
Use nM as the unit, but write only the number.

Prompt: Which measured Kd value corresponds to {5(6)‑carboxyfluorescein}-GNNRPIYIPRPRPPHPRPIRV-OH [cf-Api805] ?
Response: 515

Prompt: Look at this binder and give its reported Kd. {5(6)‑carboxyfluorescein}-VDKPPYLPRPRPPR[dR]IYN[dR]-NH2 [cf-Onc112]
Response: 51

Reference source: paper PMC9025336
